Protocol: Sedative effect: Irwin test (passivity and ataxia)
Type: in vivo
Condition set: rats, i.p., 80 mg/kg; 1, 2 and 3 hours after treatment
Observation type: Pas. (passivity, sedation, prostration; score 0 to 3)
The response must contain the number and no unit.

Illustrative cases are given below, each with its answer.
>>> observed("CCOCCn1c(CN2CCN(CCCCn3cccc3)CC2)nc2ccccc21")
0
>>> observed("CCOCCn1c(N2CCN(CCCCn3cc(C(=O)O)cn3)CC2)nc2ccccc21")
0
>>> observed("CCOCCn1c(CN2CCN(CCCCn3cc(Br)cn3)CC2)nc2ccccc21")
1.4
>>> observed("CCOCCn1c(CN2CCN(CCCCn3cccn3)CC2)nc2ccccc21")
0
>>> observed("CCOCCn1c(CN2CCN(CCCCn3cc(S(=O)(=O)O)cn3)CC2)nc2ccccc21")
0.4
>>> observed("CCOCCn1c(CN2CCN(CCCCn3cncn3)CC2)nc2ccccc21")
0.4
>>> observed("CCOCCn1c(CN2CCN(CCCCn3ccnc3)CC2)nc2ccccc21")
0
>>> observed("CCOCCn1c(N2CCN(CCCCn3cc(Br)cn3)CC2)nc2ccccc21")
0.7

Consider the additional molecule presented here.
Given CCOCCn1c(CN2CCN(CCCCn3cc(C(=O)O)cn3)CC2)nc2ccccc21 , state its recorded Pas. (passivity, sedation, prostration; score 0 to 3).
0

###

Protocol: Sedative effect: Irwin test (passivity and ataxia)
Assay type: in vivo
Condition set: rats, i.p., 80 mg/kg; 1, 2 and 3 hours after treatment
# Lookup of reported Atax. (ataxia; score 0 to 3) keyed by entry

Illustrative cases are given below, each with its answer.
>>> observed("CCOCCn1c(CN2CCN(CCCCn3cc(C(=O)O)cn3)CC2)nc2ccccc21 [Example 6]")
0
>>> observed("CCOCCn1c(CN2CCN(CCCCn3cc(S(=O)(=O)O)cn3)CC2)nc2ccccc21 [Example 5]")
0.4
>>> observed("CCOCCn1c(CN2CCN(CCCCn3cccc3)CC2)nc2ccccc21 [Example 8]")
0
>>> observed("CCOCCn1c(N2CCN(CCCCn3cc(Br)cn3)CC2)nc2ccccc21 [Example 2]")
1.3
>>> observed("CCOCCn1c(CN2CCN(CCCCn3cncn3)CC2)nc2ccccc21 [Example 4]")
0.5

Given CCOCCn1c(CN2CCN(CCCCn3ccnc3)CC2)nc2ccccc21 [Example 3] , state its recorded Atax. (ataxia; score 0 to 3).
0

Another compound to look at: CCOCCn1c(N2CCN(CCCCn3cc(C(=O)O)cn3)CC2)nc2ccccc21 [Example 9]
0

Another compound to look at: CCOCCn1c(CN2CCN(CCCCn3cccn3)CC2)nc2ccccc21 [Example 7]
0

Another compound to look at: CCOCCn1c(CN2CCN(CCCCn3cc(Br)cn3)CC2)nc2ccccc21 [Example 1]
1.3
